# Tested on: Dengue virus
# protocol_summary: Inhibition of DENV RNA-dependent RNA polymerase at 50 ug/ml
# condition_notes: dose 50.0 µg/ml
inhibition: recorded values
measured_metric: inhibition (%)

> print(dat)
                         compound.structure  observed.result
1  CC(=O)OC/C=C(\C)[C@@H]1C(C)=C[C@@H]2CC[C@H](O)[C@H](C)[C@H]2[C@@H]1/C=C/C=C/C(=O)O             85.4
2  CC1=C[C@@H]2CCC[C@H](C)[C@H]2[C@H](/C=C/C=C/C(=O)O)[C@@H]1/C(C)=C/CO             75.5
3  CC(=O)OC/C=C(\C)[C@@H]1C(C)=C[C@@H]2CC(=O)C[C@H](C)[C@H]2[C@@H]1/C=C/C=C/C(=O)O             64.6
4  C/C=C(\C)[C@@H]1C(C)=C[C@@H]2CC(=O)C[C@H](C)[C@H]2[C@@H]1/C=C/C=C/C(=O)O             85.1
